These entries and their values trace back to PubChem BioAssay (NCI).

# Test system: SR leukemia
# experiment_notes: NCI tumour cell line growth inhibition, 48 h

| compound | target_or_test_system | GI50 |
| --- | --- | --- |
| COc1ccc2c(c1)/C(=N/OC(C)=O)c1c-2c(=O)[nH]c2ccccc12 | SR leukemia | 6630 nM |
| NC1CCC(N[C@@H]2C[C@H]2c2ccccc2)CC1 (stereo partly specified) | SR leukemia | 19900 nM |
| COc1cc2c(cc1OCCCCOc1ccc(-c3nc4ccccc4s3)cc1)N=C[C@@H]1CCCN1C2=O | SR leukemia | 276 nM |
| C=C1C(=O)O[C@H]2[C@H]1CC/C(COC(=O)c1ccccc1)=C\CC[C@@]1(C)O[C@@H]21 | SR leukemia | 350 nM |
| CN1CCN(c2ccc(C(=O)Nc3cc(-c4cccc(NS(=O)(=O)c5ccccc5)c4)[nH]n3)cc2)CC1 | SR leukemia | 2000 nM |
| O=C1NN(c2ccccc2)C(=O)/C1=C/c1ccc(Br)o1 | SR leukemia | 2620 nM |

====

# Tested on: SF-295 CNS
# experiment_notes: NCI tumour cell line growth inhibition, 48 h
Below, each of the molecules is paired with its reported TGI value.
measured_metric: TGI

| molecule | result |
| --- | --- |
| C=C1C(=O)O[C@@H]2[C@H](O)[C@@H](C)[C@@H]3C=CC(=O)[C@@]3(C)[C@H](OC(=O)C=C(C)C)[C@H]12 | 7.27 µM |
| Cc1ccc(Oc2ccc([N+](=O)[O-])cc2[N+](=O)[O-])c(C)c1 | > 100 µM |
| CC(=O)Oc1ccc(/C=C/C(=O)O[C@H]2CCCC[C@@H]2OC(=O)/C=C/c2ccc(OC(C)=O)c(OC(C)=O)c2)cc1OC(C)=O | 19 µM |
| C[C@H](N)C(=O)N1C[C@H](CCCB(O)O)[C@](N)(C(=O)O)C1 | > 100 µM |
| Nn1c(Cc2ccccc2)n[nH]c1=O | > 100 µM |
| CSc1nc2c(=O)n(-c3ccccc3)c(=S)n(-c3ccccc3)c2s1 | > 100 µM |
| CC(=O)OC1Oc2ccccc2-c2oc(=O)c(-c3cc4ccccc4oc3=O)cc21 (centres undefined) | 41.3 µM |
| COC(=O)[C@H](Cc1ccccc1)NP(=O)(O)OCC1C=CC(n2cc(C)c(=O)[nH]c2=O)O1 (some centres undefined) | > 100 µM |
| NC(=O)CC(N=C1C(=O)OC(C(O)CO)C1=NC(CC(N)=O)C(=O)O)C(=O)O (centres undefined) | > 100 µM |

====

Below, each of the compounds is paired with its reported TGI value.
# Test system: A549 NSCLC
# experiment_notes: NCI tumour cell line growth inhibition, 48 h
measured_metric: TGI

| compound | target_or_test_system | measured_metric | result |
| --- | --- | --- | --- |
| COc1ccc(N(/C=C/C(=O)C(F)(F)F)CC(=O)c2ccc(Cl)c(Cl)c2)cc1 | A549 NSCLC | TGI | 68 µM |
| N#Cc1c(N)nc(N2CCOCC2)c(C#N)c1-c1ccccc1Cl | A549 NSCLC | TGI | > 100 µM |
| CC(NC(C#N)CC12CC3CC(CC(C3)C1)C2)c1ccccc1 (stereo not given) | A549 NSCLC | TGI | > 100 µM |
| OCC(O)C(O)C(O)/C=N/Nc1nc2ccccc2nc1-c1ccccc1 (stereo not given) | A549 NSCLC | TGI | > 100 µM |
| CC1(C)CC2(C)CC1CC2NC(=O)CCN1CCOCC1 (stereo not given) | A549 NSCLC | TGI | > 100 µM |
| N#CC1CC2(C(=O)C1=O)c1ccccc1-c1ccccc12 (stereo not given) | A549 NSCLC | TGI | > 100 µM |
| S=C(Nc1ccccn1)Nc1ccccc1Cl | A549 NSCLC | TGI | > 100 µM |
| COc1ccc(-c2csc(NC(=O)c3cc(O)c(O)c(O)c3)n2)cc1 | A549 NSCLC | TGI | > 33.3 µM |
| COc1cc(C2c3cc4c(cc3[C@@H](Nc3cccc([N+](=O)[O-])c3)C3COC(=O)[C@H]23)OCO4)cc(OC)c1O (stereo not given in full) | A549 NSCLC | TGI | 4.38 µM |
| CC(C)OC(=O)[C@@H](O)[C@H](CO)C1=CC([Si](C)(C)c2ccccc2)=CON1 | A549 NSCLC | TGI | > 100 µM |
